molecular target: EH domain of γ‐synergin (EHγ, residues 279–388) (Homo sapiens, UniProt Q9UMZ2); construct: His-tag with TEV cleavage site (N, cleaved yes); made in house; host or cells: Escherichia coli BL21(DE3); test: Isothermal titration calorimetry of SCAMP1 fragments and peptides with EHγ; type: binding; details: ITC, VP-ITC, 50–200 μM EHγ in cell, ligand 700–2000 μM, 20 mM Tris, 100 mM NaCl, 2 mM CaCl2 pH 7.5, 20°C, one site binding model
Sequence (Q9UMZ2 279-388): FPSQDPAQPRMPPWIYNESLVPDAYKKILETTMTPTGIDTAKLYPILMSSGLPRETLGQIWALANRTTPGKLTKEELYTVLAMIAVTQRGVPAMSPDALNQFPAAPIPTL
Ends that are not written are not given here.
Listed here: items and their measured N (stoichiometry).
measurement_name: N (stoichiometry)

substance: GLDEYNPFSDSRT-NH2 [Peptide C]
measurement_name: N (stoichiometry)
quantitative_result: 1.0
--
substance: SDFDSNPFADPDLNY-NH2 [Peptide A]
measurement_name: N (stoichiometry)
quantitative_result: 1.2
--
substance: ADPDLNNPFKDPSVTY-NH2 [Peptide B]
measurement_name: N (stoichiometry)
quantitative_result: 1.1
--
substance: SCAMP1″: NPF repeat rich fragment of SCAMP1 possessing three NPF-motifs (residues 1–52) (MSDFDSNPFADPDLNNPFKDPSVTQVTRNVPPGLDEYNPFSDSRTPPPGGVK; UniProt O15126 1-52, looked up, fragment)
measurement_name: N (stoichiometry)
quantitative_result: 0.33
